# credit: paper PMC11477621

Assay: Pharmacokinetic study in male ICR mice
Assay type: in vivo
Settings: mouse, plasma, iv, 1 mg/kg
Readout label: AUC(0-t) (µg·h/mL)

[[record]]
compound = "CC(=O)c1cccn1CCc1ccc(C(=O)Nc2ccccc2N)cc1 [Compound 20]"
measurement = 0.163


====

Assay: Pharmacokinetic study in male ICR mice
Type: in vivo
Details: mouse, plasma, iv, 1 mg/kg
Readout label: half-life (min)

[[record]]
smiles_string = "CC(=O)c1cccn1CCc1ccc(C(=O)Nc2ccccc2N)cc1"
readout_label = "half-life"
measurement = 11.5


====

Experiment: Pharmacokinetic study in male ICR mice
Format: in vivo
Details: mouse, plasma, po, 5 mg/kg
Readout label: AUC(0-inf) (ng·h/mL)

[[record]]
smiles_string = "CC(=O)c1cccn1CCc1ccc(C(=O)Nc2ccccc2N)cc1"
measurement = 47.2

